Assay: in vitro
Settings: African green monkey
Square brackets hold non-standard residues; d marks the D form. Peptide text beside a SMILES is read from it. Nle = CCCC[C@H](N)C(=O)O
measurement label: viability at 48 h, 0.1 µM (%)
// note: answer is a bare numeric in %

// query What value of viability at 48 h, 0.1 µM has been reported for the following compound? `CCCC[C@@H](C=O)NC(=O)[C@H](CC(C)C)NC(=O)OCc1ccccc1`
// result 101

// query What value of viability at 48 h, 0.1 µM has been reported for the following compound? CCCC[C@@H](C=O)NC(=O)[C@H](CC(C)C)NC(=O)[C@H](CC(C)C)NC(C)=O [MG101] (Ac-Leu-Leu-[Nle]-aldehyde)
// result 102

* * *

Assay: Cell viability assay (CellTiter-Blue)
Conditions: African green monkey
Peptide text beside a SMILES is read from it. * marks the point of attachment. Cbz = O=C(OCc1ccccc1)*
measurement label: viability at 48 h, 0.1 µM (%)
// note: answer is a bare numeric in %

// query What value of viability at 48 h, 0.1 µM has been reported for the following compound? CC(C)C[C@@H](C=O)NC(=O)[C@@H](NS(=O)(=O)c1ccc(F)cc1)C(C)C [CIVI]
// result 95.1

// query What value of viability at 48 h, 0.1 µM has been reported for the following compound? O=C(NCc1ccccc1)[C@H](Cc1ccccc1)NC(=O)[C@H]1O[C@@H]1C(=O)NCCc1ccc(O)cc1 [CAA0225]
// result 100

// query What value of viability at 48 h, 0.1 µM has been reported for the following compound? CC(C)[C@H](NC(=O)OCc1ccccc1)C(=O)N[C@H](C=O)Cc1ccccc1 [CIII] (Cbz-Val-Phe-aldehyde)
// result 96

// query What value of viability at 48 h, 0.1 µM has been reported for the following compound? CCCC(NC(=O)C(CC(C)C)NC(=O)OCc1ccccc1)C(=O)C(=O)NCc1ccccn1 (stereo not drawn) [CIXII]
// result 98.8

// query What value of viability at 48 h, 0.1 µM has been reported for the following compound? CN(C)C(=O)C(Cc1ccccc1)NC(=O)[C@H]1O[C@@H]1C(=O)NCCc1ccccn1 (stereo partly drawn) [CLIK148]
// result 98.3

// query What value of viability at 48 h, 0.1 µM has been reported for the following compound? CC[C@@H](C)[C@H](NS(=O)(=O)c1cccc2ccccc12)C(=O)N[C@H](C=O)Cc1c[nH]c2ccccc12 [CLIIV]
// result 98.7

* * *

Experiment: Cell viability assay (CellTiter-Blue)
Settings: African green monkey
Peptide text beside a SMILES is read from it. * marks the point of attachment. Cbz = O=C(OCc1ccccc1)*
Field: viability at 48 h, 0.01 µM. Provide a value for each of the compounds that follow.
// note: answer is a bare numeric in %

// query What value of viability at 48 h, 0.01 µM has been reported for the following compound? `O=C(NCc1ccccc1)[C@H](Cc1ccccc1)NC(=O)[C@H]1O[C@@H]1C(=O)NCCc1ccc(O)cc1`
// result 104

// query What value of viability at 48 h, 0.01 µM has been reported for the following compound? `CC[C@@H](C)[C@H](NS(=O)(=O)c1cccc2ccccc12)C(=O)N[C@H](C=O)Cc1c[nH]c2ccccc12`
// result 100

// query What value of viability at 48 h, 0.01 µM has been reported for the following compound? CCCC(NC(=O)C(CC(C)C)NC(=O)OCc1ccccc1)C(=O)C(=O)NCc1ccccn1 (stereo not drawn)
// result 100

// query What value of viability at 48 h, 0.01 µM has been reported for the following compound? CN(C)C(=O)C(Cc1ccccc1)NC(=O)[C@H]1O[C@@H]1C(=O)NCCc1ccccn1 (stereo partly drawn)
// result 101

// query What value of viability at 48 h, 0.01 µM has been reported for the following compound? `CC(C)C[C@@H](C=O)NC(=O)[C@@H](NS(=O)(=O)c1ccc(F)cc1)C(C)C`
// result 95.9

// query What value of viability at 48 h, 0.01 µM has been reported for the following compound? CC(C)[C@H](NC(=O)OCc1ccccc1)C(=O)N[C@H](C=O)Cc1ccccc1 [CIII] (Cbz-Val-Phe-aldehyde)
// result 95.3
